meta.source: patent US20080194546A1

As shown below, each of these compounds has a reported pIC50 value.
subject_of_test: mTOR (Homo sapiens, UniProt P42345)
Construct: mTOR protein was isolated from HeLa cell cytoplasmic extract by immunoprecipitation; endogenous in cells; host or cells: HeLa cell cytoplasmic extract (immunoprecipitate)
protocol: Biological Assay: mTOR enzyme activity, mTOR immunoprecipitated from HeLa cell cytoplasmic extract, recombinant PHAS-1 as substrate
Assay type: biochemical
particulars: Biological Assay, upper bounds; read-out: IC50 values against mTOR
pIC50: −log10 of the molar value.

Below are worked cases with known answers.
{"columns": ["compound", "pIC50"],
 "data": [
  ["CCSCCNCc1cc(-c2ccc3c(N4CCOCC4)nc(N4C[C@@H](C)O[C@@H](C)C4)nc3n2)ccc1OC [Example 8ak]", "> 7.00"],
  ["CCNC(=O)Nc1ccc2c(N3CCOCC3)nc(N3C[C@@H](C)O[C@@H](C)C3)nc2n1 [Example 4a]", "> 5.00"],
  ["COCCN(CCOC)c1nc(N2CCOCC2)c2ccc(-c3ccc(OC)c(CO)c3)nc2n1 [Example 1af]", "> 6.00"],
  ["C[C@@H]1CN(c2nc(N3CCOCC3)c3ccc(Nc4cccc(C(=O)c5ccccc5)c4)nc3n2)C[C@H](C)O1 [Example 2m]", "> 5.00"],
  ["COC(=O)[C@H](NCc1cc(-c2ccc3c(N4CCOCC4)nc(N4C[C@@H](C)O[C@@H](C)C4)nc3n2)ccc1OC)c1ccccc1 [Example 8ao]", "> 6.00"],
  ["C[C@@H]1CN(c2nc(N3CCOCC3)c3ccc(-c4cccc5ccccc45)nc3n2)C[C@H](C)O1 [Example 1an]", "> 6.00"],
  ["CC1CCCCN1c1nc(N2CCOCC2)c2ccc(-c3ccccc3)nc2n1 (centres unmarked) [1 h]", "> 5.00"],
  ["C[C@@H]1CN(c2nc(N3CCOCC3)c3ccc(-c4ccc(OC(F)(F)F)cc4)nc3n2)C[C@H](C)O1 [Example 1ao]", "> 6.00"]
]}

Tell me measured pIC50 for C[C@@H]1CN(c2nc(N3CCOCC3)c3ccc(-c4ccc(Cl)s4)nc3n2)C[C@H](C)O1 [Example 1al] please.
> 6.00

Provide only the value of recorded pIC50 for COC(=O)c1ccc(Nc2ccc3c(N4CCOCC4)nc(N4C[C@@H](C)O[C@@H](C)C4)nc3n2)o1 [Example 2an]
> 5.00

Retrieve pIC50 measured for C[C@@H]1CN(c2nc(N3CCOCC3)c3ccc(Nc4ccc(C#N)cc4)nc3n2)C[C@H](C)O1 [Example 2h] and print it.
> 6.00

// Input: COc1ccc(-c2ccc3c(N4CCOCC4)nc(N4C[C@@H](C)O[C@@H](C)C4)nc3n2)cc1CNCc1cccs1 [Example 8j] . Output its pIC50 only.
> 7.00

Supply reported pIC50 belonging to this compound: CCCCCOc1ccc(NCc2cc(-c3ccc4c(N5CCOCC5)nc(N5C[C@@H](C)O[C@@H](C)C5)nc4n3)ccc2OC)cc1 [Example 8bf]
> 6.00

State its pIC50: C[C@@H]1CN(c2nc(N3CCOCC3)c3ccc(Nc4ccc(-n5cccc5)cc4)nc3n2)C[C@H](C)O1 [Example 2q]
> 6.00

Name the recorded pIC50 of the compound listed here: Cc1cc(-c2ccc3c(N4CCOCC4)nc(N4C[C@@H](C)O[C@@H](C)C4)nc3n2)cs1 [Example 1y]
> 6.00

Report pIC50, nothing else, for this compound: Cc1ccc(Nc2ccc3c(N4CCOCC4)nc(N4C[C@@H](C)O[C@@H](C)C4)nc3n2)cc1 [Example 2j]
> 6.00

Tell me its pIC50 given COc1ccc(-c2ccc3c(N4CCOCC4)nc(N4C[C@@H](C)O[C@@H](C)C4)nc3n2)cc1CNCCC(C)C [Example 8m] as the entry.
> 7.00

----------
subject_of_test: recombinant mTOR (FLAG-tagged, amino acid residues 1362 to 2549) (Homo sapiens, UniProt P42345)
protocol: Alternative Enzyme Assay: AlphaScreen, inhibition of phosphorylation by recombinant mTOR
Type: biochemical
particulars: Alternative Enzyme Assay, upper bounds; read-out: IC50 values against mTOR
parameter_measured: IC50

{"columns": ["molecule", "value_measured"],
 "data": [
  ["C[C@@H]1CN(c2nc(N3CCOCC3)c3ccc(-c4ccc(OC5C=CCCC5)cc4)nc3n2)C[C@H](C)O1 (stereo partly drawn)", "< 10000 nM"],
  ["CCOc1ccc(-c2ccc3c(N4CCOCC4)nc(N4C[C@@H](C)O[C@@H](C)C4)nc3n2)cc1", "< 1000 nM"]
]}

Consider the record given below.
State its IC50 for this molecule: COC(=O)c1cccc(-c2nc(N3CCOCC3)c3ccc(-c4ccc(Cl)cc4)nc3n2)c1
< 1000 nM

----------
Reported pIC50 by item:
subject_of_test: mTOR (Homo sapiens)
Construct: mTOR protein was isolated from HeLa cell cytoplasmic extract by immunoprecipitation; endogenous in cells; host or cells: HeLa cell cytoplasmic extract (immunoprecipitate)
protocol: Biological Assay: mTOR enzyme activity, mTOR immunoprecipitated from HeLa cell cytoplasmic extract, recombinant PHAS-1 as substrate
Type: biochemical
particulars: Biological Assay, upper bounds; read-out: IC50 values against mTOR
pIC50: −log10 of the molar value.

{"columns": ["compound", "subject_of_test", "value_measured"],
 "data": [
  ["COC(=O)c1cc(Nc2ccc3c(N4CCOCC4)nc(N4C[C@@H](C)O[C@@H](C)C4)nc3n2)cn1C", "mTOR (Homo sapiens)", "> 6.00"],
  ["COc1ccc(-c2ccc3c(N4CCOCC4)nc(N4C[C@@H](C)O[C@@H](C)C4)nc3n2)cc1CNCC1CCCCCC1O (stereo partly shown)", "mTOR (Homo sapiens)", "> 7.00"],
  ["CCCCNCc1cc(-c2ccc3c(N4CCOCC4)nc(N4C[C@@H](C)O[C@@H](C)C4)nc3n2)ccc1OC", "mTOR (Homo sapiens)", "> 7.00"]
]}

Could you now look at the following compound, please?
Report measured pIC50; entry is C[C@@H]1CN(c2nc(N3CCOCC3)c3ccc(Nc4cnccn4)nc3n2)C[C@H](C)O1
> 5.00

----------
subject_of_test: mTOR (Homo sapiens, UniProt P42345)
Construct: mTOR protein was isolated from HeLa cell cytoplasmic extract by immunoprecipitation; endogenous in cells; host or cells: HeLa cell cytoplasmic extract (immunoprecipitate)
protocol: Biological Assay: mTOR enzyme activity, mTOR immunoprecipitated from HeLa cell cytoplasmic extract, recombinant PHAS-1 as substrate
Format: biochemical
particulars: Biological Assay, single values; read-out: IC50
parameter_measured: pIC50
The read-out pIC50 is expressed as -log10 of concentration in moles per litre.

Given the molecule C[C@@H]1CN(c2nc(N3CCOCC3)c3ccc(-c4ccsc4)nc3n2)C[C@H](C)O1 [Comparative Example 1k, reference compound] , write its reported pIC50.
7.48

----------
subject_of_test: mTOR (Homo sapiens, UniProt P42345)
Construct: mTOR protein was isolated from HeLa cell cytoplasmic extract by immunoprecipitation; endogenous in cells; host or cells: HeLa cell cytoplasmic extract (immunoprecipitate)
protocol: Biological Assay: mTOR enzyme activity, mTOR immunoprecipitated from HeLa cell cytoplasmic extract, recombinant PHAS-1 as substrate
Type: biochemical
particulars: Biological Assay, upper bounds; read-out: IC50 values against mTOR
pIC50: −log10 of the molar value.
parameter_measured: pIC50

Take a look at these entries with their results.
{"columns": ["compound", "pIC50"],
 "data": [
  ["C[C@@H]1CN(c2nc(N3CCOCC3)c3ccc(-c4ccc(O)cc4)nc3n2)C[C@H](C)O1 [Example 1l]", "> 7.00"],
  ["COc1ccc(-c2ccc3c(N4CCOCC4)nc(N4C[C@@H](C)O[C@@H](C)C4)nc3n2)cc1CNC1CCC1 [Example 8a]", "> 7.00"],
  ["COc1ccc(-c2ccc3c(N4CCOCC4)nc(N4C[C@@H](C)O[C@@H](C)C4)nc3n2)cc1CNC(C)C [Example 8r]", "> 6.00"]
]}

Consider the record given below.
Give a short answer stating reported pIC50 for COc1ccc(-c2ccc3c(N4CCOCC4)nc(N4C[C@@H](C)O[C@@H](C)C4)nc3n2)cc1CNC1CCCC1 [Example 8k] .
> 7.00

----------
subject_of_test: mTOR (Homo sapiens)
Construct: mTOR protein was isolated from HeLa cell cytoplasmic extract by immunoprecipitation; endogenous in cells; host or cells: HeLa cell cytoplasmic extract (immunoprecipitate)
protocol: Biological Assay: mTOR enzyme activity, mTOR immunoprecipitated from HeLa cell cytoplasmic extract, recombinant PHAS-1 as substrate
Assay type: biochemical
particulars: Biological Assay, upper bounds; read-out: IC50 values against mTOR
pIC50: −log10 of the molar value.
parameter_measured: pIC50

Some entries whose results are on file:
{"columns": ["compound", "value_measured"],
 "data": [
  ["C[C@@H]1CN(c2nc(N3CCOCC3)c3ccc(Nc4cc(F)c(F)cc4[N+](=O)[O-])nc3n2)C[C@H](C)O1", "> 6.00"],
  ["C[C@@H]1CN(c2nc(N3CCOCC3)c3ccc(NC4CC4)nc3n2)C[C@H](C)O1", "> 6.00"],
  ["CCC1CCCCN1c1nc(N2CCOCC2)c2ccc(-c3ccc(OC)c(CO)c3)nc2n1 (stereo not shown)", "> 7.00"],
  ["COc1ccc(-c2ccc3c(N4C[C@@H](C)O[C@@H](C)C4)nc(N4CCOC[C@@H]4C)nc3n2)cc1CO", "> 7.00"],
  ["COc1ccc(-c2ccc3c(N4CCOCC4)nc(N(CCO)CCO)nc3n2)cc1CO", "> 7.00"]
]}

Respond only with pIC50 recorded for CSc1nc2ccc(Nc3ccc4c(N5CCOCC5)nc(N5C[C@@H](C)O[C@@H](C)C5)nc4n3)cc2s1
> 6.00

Please report pIC50 for the following compound: COc1ccc(-c2ccc3c(N4CCOCC4)nc(N4C[C@@H](C)O[C@@H](C)C4)nc3n2)cc1CNCc1cccc([N+](=O)[O-])c1
> 6.00
